Assay: Novel Modifiers of Survival Motor Neuron (SMN) Protein: Gene Identification via Genome-wide siRNA Screen;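 note: luminescence tracks full-length SMN protein made from the SMN2 reporter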
Details: HEK293T SMN2-luciferase reporter, siRNA knockdown, 72 h; actives lie on both sides
The campaign covered roughly 31,000 sequences. About 1,400 (4.5%) were called active. The sample as a whole holds a higher share of actives than the screen did.
# note: exactly 0.06 is not below, so it is f; use t for median seed-adjusted z-score strictly under it

Inquiry: Just wondering, is median seed-adjusted z-score of GGCUAUGAUCAAAUCCUUATT against SLC17A4 below 0.06?
Reply text: f

Inquiry: Lab note: median seed-adjusted z-score threshold 0.06. Does this sequence come in strictly under it? GCGAGUGUGAGAAAACAUUTT against ZFP3
Reply text: t

Inquiry: A record lists CAAAGGAUGUCAUUCGUAATT against CKAP5 . Is its median seed-adjusted z-score below 0.06?
Reply text: t

Inquiry: In plain terms, does ACAGUUCUCUAUGACCUCATT against PLA2G4E come in under 0.06 for median seed-adjusted z-score?
Reply text: f

Inquiry: Field: below-cutoff. Rule: recorded median seed-adjusted z-score strictly less than 0.06. Subject: CUAUGAUCUCAACCAAAUATT against CD248
Reply text: t

Inquiry: Is 0.06 strictly greater than the sequence's reported median seed-adjusted z-score? sequence: UUAUCACAGAGCAACCUAATT against NUBPL
Reply text: f

Inquiry: Dear colleague, could you confirm whether median seed-adjusted z-score of GCCUCUAUUUGAUAAGCGATT against NAP1L1 falls below 0.06? Thanks.
Reply text: f

Inquiry: Decide: median seed-adjusted z-score of AUAAAUUCCUGAUUGCUAATT against CXCL6 strictly below 0.06?
Reply text: f

Inquiry: median seed-adjusted z-score under 0.06? Item: GAGAAGGCCUAUUCAGACATT against ZBTB7C
Reply text: f

Inquiry: Answer whether the sequence CGAUGAAGGGUUCCGAUUATT against CR1 has median seed-adjusted z-score strictly less than 0.06
Reply text: f

Inquiry: Could you please tell me whether median seed-adjusted z-score recorded for AGUUGUAAAUUUACAAAGATT against UNC119 is less than 0.06?
Reply text: f

Inquiry: Please let me know if GGAGACUUACUACCUAUAATT against PARD6B shows median seed-adjusted z-score below 0.06.
Reply text: f

Inquiry: Could you please tell me whether median seed-adjusted z-score recorded for GGUUUCAACUGGACUUCUATT against MFSD5 is less than 0.06?
Reply text: f

Inquiry: hey, is median seed-adjusted z-score for GCAUAUUCCGGUGAUAACUTT against RAB6C lower than 0.06 or not?
Reply text: t

Inquiry: Lab note: confirm whether the reported median seed-adjusted z-score for this sequence is below 0.06, equality not counting. sequence: GAGGUUUUAUAUAACCGAUTT against SMC6
Reply text: f

Inquiry: Confirm or reject: median seed-adjusted z-score of GCAGAAACCCAGAUCGAGATT against PLAT lies strictly below 0.06
Reply text: f

Inquiry: Please check: median seed-adjusted z-score for GGAGGAUCCCAUUAUACUATT against LPA , strictly under 0.06 or not?
Reply text: t

Inquiry: Item CGGGAACACGUUUCAGGGATT against GPR157 : median seed-adjusted z-score beneath 0.06, strictly?
Reply text: f

Inquiry: Does the reported median seed-adjusted z-score of the following sequence sit strictly below 0.06? CAAAUUGCCUCGUCAAAGATT against DNTT
Reply text: f

Inquiry: Consider the sequence CGACUUCAUUGUAAAGAAATT against LIPF . Is its median seed-adjusted z-score strictly less than 0.06?
Reply text: f

Inquiry: Strictly below 0.06 in median seed-adjusted z-score? CCACAGUUCCUGUCAUGUUTT against ACMSD
Reply text: t

Inquiry: Consider the sequence CCAAUAUUGUGGAUCCUUUTT against HTR4 . Is its median seed-adjusted z-score strictly less than 0.06?
Reply text: f

Inquiry: Identify whether the sequence AGCUUCUACCGUGUCCUUATT against UCK2 records median seed-adjusted z-score below 0.06.
Reply text: t

Inquiry: Lab log: compare recorded median seed-adjusted z-score with 0.06; is it strictly lower for AGCCCGUGAUGUACACGUATT against COL8A1 ?
Reply text: t

Inquiry: I'd appreciate it if you could check whether GAAGAAUAGUGAUGCUCGATT against GRIA1 has median seed-adjusted z-score smaller than 0.06.
Reply text: f
